# maps each entry to its pIC50
- tested-system: 5-HT2 receptors (Rattus norvegicus, UniProt P14842)
- Construct: The caudal arteries were dissected free from connective tissue and cut into spiral strips
- Sequence (P14842 whole entry): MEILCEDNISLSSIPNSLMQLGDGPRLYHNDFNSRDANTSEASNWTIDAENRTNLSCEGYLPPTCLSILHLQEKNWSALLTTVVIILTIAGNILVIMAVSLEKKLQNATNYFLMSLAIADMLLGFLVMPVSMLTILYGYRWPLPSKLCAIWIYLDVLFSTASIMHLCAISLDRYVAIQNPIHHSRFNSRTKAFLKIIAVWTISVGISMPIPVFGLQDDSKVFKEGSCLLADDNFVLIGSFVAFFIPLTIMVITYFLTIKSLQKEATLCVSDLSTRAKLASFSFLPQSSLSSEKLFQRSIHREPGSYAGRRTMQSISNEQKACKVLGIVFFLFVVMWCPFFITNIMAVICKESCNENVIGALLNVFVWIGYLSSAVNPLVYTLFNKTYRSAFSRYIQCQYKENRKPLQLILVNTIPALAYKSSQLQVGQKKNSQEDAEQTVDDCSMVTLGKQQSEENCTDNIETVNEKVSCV
- assay-summary: Vasoconstriction experiment: relaxation of rat caudal artery strips precontracted with 5-HT
- measurement-parameters: precontracted with 5-HT 3×10^-6 M; concentration causing one half of maximum relaxation (papaverine 10^-4 M = maximum); 37 °C
Where a name gives a salt, the structure may show the parent alone.
// pIC50 is dimensionless: -log10 of concentration (M)

Worked cases, pIC50 given:
CCOc1cccc(CCc2ccccc2OCCC2CCCN2C)c1 (centres unmarked) [Example 99, hydrochloride]    8.21
COc1cccc(CCc2ccccc2OC[C@H]2CCCNC2)c1 [Example 120, hydrochloride]    8.38
CN1CCCC1CCOc1ccccc1CCc1cccc(Br)c1 (centres unmarked) [Example 98, hydrochloride]    8.27

Record COc1cccc(CCc2ccccc2OCCC2CCCCN2C)c1 (centres unmarked) [Example 48, hydrochloride] . Reported pIC50: 8.43

Record COc1cccc(CCc2ccccc2OC[C@H]2CCCN(C)C2)c1 [Example 121, hydrochloride] . Reported pIC50: 8.66

Record CN1CCCC(COc2ccccc2CCc2cccc(OC(F)F)c2)C1 (centres unmarked) [Example 124, hydrochloride] . Reported pIC50: 8.34

Record CN1CCCC1CCOc1ccccc1CCc1ccccc1C#N (centres unmarked) [Example 108, hydrochloride] . Reported pIC50: 8.66

Record CN1CCC[C@H]1CCOc1ccccc1CCc1cccc(OC(F)F)c1 [Example 116, hydrochloride] . Reported pIC50: 8.66

###

- Tested on: adrenaline-α1 receptors
- assay-summary: Vasoconstriction experiment: relaxation of rat caudal artery strips precontracted with phenylephrine
- Type: cell-based, rat (male Sprague-Dawley)
- measurement-parameters: precontracted with phenylephrine 10^-6 M; concentration causing one half of maximum relaxation (papaverine 10^-4 M = maximum); 37 °C; read-out: IC50 adrenalin-α1
Counter-ions that a name gives are not always drawn.
# maps each entry to its IC50
Give the value, in units of nM, as a plain number.

Worked cases, IC50 given:
COc1cccc(CCc2ccccc2OCC2CCCN(C)C2)c1 (stereo not drawn) [Example 50, hydrochloride]    3700
COc1cccc(CCc2ccccc2OCC[C@@H]2CCCN2C)c1 [Example 113, hydrochloride]    1200

Lab note: compound CN1CCCC1CCOc1ccccc1CCc1ccccc1C#N (stereo not drawn) [Example 108, hydrochloride] tested on adrenaline-α1 receptors; recorded IC50 was 1700
